Recorded values, source patent US11945822B2.

target: CDK2/Cyclin A (Homo sapiens, UniProt P24941); construct: purchased Invitrogen PV6290; assay: Enzymatic assay for CDK2 (FRET based LANCE Ultra kinase assay); assay type: biochemical; conditions: read-out: CDK2 enzymatic activity (IC50 range)
pIC50: −log10 of the molar value.
measurement-type: pIC50

{"structure": "CC(C)c1cnn2c(NCc3ccccc3-c3ccc4ccccc4n3)nc(NCC[C@H](O)CN)nc12", "pIC50": "< 6.00"}

Qu. Any idea what pIC50 was measured for NC1CCN(c2nc(NCc3ccccc3-n3cccn3)n3ncc(Br)c3n2)CC1 ?
Ans. 6.00 to 7.00

Qu. So what's the measured pIC50 for this one? CC(C)c1cnn2c(NCc3ccccc3-c3cc4ccccc4cn3)nc(N3CCC(N)CC3)nc12
Ans. 6.00 to 7.00

Qu. Request the reported pIC50 associated with CNC(=O)c1ccc2nc(-c3ccccc3CNc3nc(N4CCC(N)CC4)nc4c(C(C)C)cnn34)cnc2c1
Ans. < 6.00
